A collection of compounds and their measured relative viability
test system: NCI-H1975; assay: relative viability (nuclei count vs DMSO), 5 days (fraction); higher = more cells survive; details: first compound 1 µM
No unit in the answer, only the number.

[
  {
    "compound": "NC(=O)Nc1cc(-c2cccc(F)c2)sc1C(=O)N[C@H]1CCCNC1 [AZD7762] + COc1cccc2cc(-c3nc([C@H]4CC[C@H](C(=O)O)CC4)n4ncnc(N)c34)[nH]c12 [OSI-027] (partner 0.5 µM)",
    "relative viability": 0.397
  }
]

State, in one line, measured relative viability of NC(=O)Nc1cc(-c2cccc(F)c2)sc1C(=O)N[C@H]1CCCNC1 [AZD7762] + CS(=O)(=O)N1CCN(Cc2cc3nc(-c4cccc5[nH]ncc45)nc(N4CCOCC4)c3s2)CC1 [Pictilisib] (partner 1 µM) 0.194

State, in one line, measured relative viability of NC(=O)Nc1cc(-c2cccc(F)c2)sc1C(=O)N[C@H]1CCCNC1 [AZD7762] + CC(=O)Nc1cccc(-n2c(=O)n(C3CC3)c(=O)c3c(Nc4ccc(I)cc4F)n(C)c(=O)c(C)c32)c1 [Trametinib] (partner 0.02 µM) 0.24

State, in one line, measured relative viability of NC(=O)Nc1cc(-c2cccc(F)c2)sc1C(=O)N[C@H]1CCCNC1 [AZD7762] + CC(C)C[C@H](NC(=O)[C@H](Cc1ccccc1)NC(=O)c1cnccn1)B(O)O [Bortezomib] (partner 0.002 µM) 0.272

State, in one line, measured relative viability of NC(=O)Nc1cc(-c2cccc(F)c2)sc1C(=O)N[C@H]1CCCNC1 [AZD7762] + O=C(c1cc(Cc2n[nH]c(=O)c3ccccc23)ccc1F)N1CCN(C(=O)C2CC2)CC1 [Olaparib] (partner 8 µM) 0.401

State, in one line, measured relative viability of NC(=O)Nc1cc(-c2cccc(F)c2)sc1C(=O)N[C@H]1CCCNC1 [AZD7762] + Cc1nc(Nc2ncc(C(=O)Nc3c(C)cccc3Cl)s2)cc(N2CCN(CCO)CC2)n1 [Dasatinib] (partner 0.075 µM) 0.242

State, in one line, measured relative viability of NC(=O)Nc1cc(-c2cccc(F)c2)sc1C(=O)N[C@H]1CCCNC1 [AZD7762] + C[C@]1(O)C[C@@H](c2nc(-c3ccc4ccc(-c5ccccc5)nc4c3)c3c(N)nccn32)C1 [Linsitinib] (partner 1 µM) 0.482

Values were extracted from the supplement of paper PMC10307832.
